Hi there, I'd appreciate the recorded Chemical Stability (HPLC (post 4 weeks at 40° C./75% RH (Area %))) for every entry that follows.
# assay procedure: Solid state stress stability (storage; XRPD and stability-indicating HPLC)
# Type: physicochemical
# conditions used: 4 weeks, 40° C./75% RH
The figure you give is taken to be in Area %; do not add the unit.

Input: Looking for the measured Chemical Stability (HPLC (post 4 weeks at 40° C./75% RH (Area %))) of COc1cccc2[nH]c3c4c(c5c(c3c12)C(=O)N(CN1CCN(C)CC1)C5=O)CCC4 [Form HA0] , can you help?
Output: 99.0

Input: What do you have for COc1cccc2[nH]c3c4c(c5c(c3c12)C(=O)N(CN1CCN(C)CC1)C5=O)CCC4 [Form A0] ?
Output: 99.0

Input: Same lookup for COc1cccc2[nH]c3c4c(c5c(c3c12)C(=O)N(CN1CCN(C)CC1)C5=O)CCC4 [Form HD0] , please.
Output: 92.3

Input: Repeat with COc1cccc2[nH]c3c4c(c5c(c3c12)C(=O)N(CN1CCN(C)CC1)C5=O)CCC4 [Form HC0]
Output: 99.0
